Reported values of protein stability index for individual entries
B1: MFF (parent)
chain: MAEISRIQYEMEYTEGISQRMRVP

variants of: B1; test: protein stability index of a GFP-peptide fusion (GPS, HEK-293T) (PSI 1-6); higher = more stable; details: c terminus: a fixed tail appended;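 note: lentivirally expressed fusions sorted by FACS into six bins by GFP to DsRed ratio, PSI derived from sequencing read proportions per bin multiplied by bin number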
Reply with just the number.

A2G	3.03
R6M	2.41
R22Q	2.43

Query: I would be grateful if you could share the reported protein stability index for "E10T" .
Reply: 1.99

Query: Next record, please: "I4W"
Reply: 2.89

Query: Next record, please: "E3L"
Reply: 1.77

Query: Next record, please: "M21E"
Reply: 3.58

Query: Next record, please: "E3D"
Reply: 2.58

Query: Next record, please: "R22H"
Reply: 2.46
